- Tested on: U2OS
- Assay Text: Here: values are normalized to the negative (DMSO; defined as 0% autophagy induction) and positive (250nM Torin1; mTOR inhibitor; defined as maximal inducer of autophagy = 100%) control compounds and represented as % of autophagy induction. […] The impact of autophagy induction on cells is complex and depends on the affected target. As such, the magnitude of a phenotype may not be equally mirrored in the %-value of autophagy induction and vice versa. The dynamics of the induction may indicate the mode of activation: e.g. activation via phosphorylation or a signaling cascade may occur fast, while activation via transcription factors may take considerably longer. […] Of note, treatment concentrations may be sub-optimal for specific compounds, leading to false negative annotations.
- Assay type: functional, Homo sapiens
- Run Parameters: Compound Concentration 0.5 uM, Timepoint 24 hours, Culturing Media DMEM, 1 % Penicillin/Streptomycin, 10% Fetal bovin serum Add-On: No, Screening Media Control DMEM, Screening Media Samples DMEM
Property Measured: autophagy induction

- Compound: "O=C(O)C1CN(Cc2ccc(-c3nc4cc(Cc5ccccc5F)ccc4s3)c(F)c2)C1"
  autophagy induction: "-0.4566%"
- Compound: "N#Cc1cccc(C(=O)Nc2cc(-c3ccccc3)nn2-c2ccccc2)c1"
  autophagy induction: "-2.328%"
- Compound: "CCc1cc(C(C)=O)c(O)cc1OCCCCCC(C)(C)c1nn[nH]n1"
  autophagy induction: "-0.4862%"
- Compound: "COc1ccc(CNC(=O)c2cc(-c3cncc(Cl)c3)cnc2-c2ccccn2)nc1OC"
  autophagy induction: "0.4544%"
- Compound: "CCCCCCCCCCCCCCCCOC[C@H](COP(=O)([O-])OCC[N+](C)(C)C)OC(C)=O"
  autophagy induction: "0.1782%"
- Compound: "N#Cc1ccc(NC(=O)Nc2ccccc2Br)c2nn[nH]c12"
  autophagy induction: "-3.216%"
- Compound: "CN(C(=O)Cc1ccc(Cl)c(Cl)c1)C(CN1CCCC1)c1cccc(OCC(=O)O)c1.Cl (centres undefined)"
  autophagy induction: "-7.849%"
- Compound: "CC(C)NCC(O)c1ccc(N)c(C#N)c1 (centres undefined)"
  autophagy induction: "-2.541%"

Here's the next entry for you.
Query string: GET /values?readout=autophagy induction&item= O=C1O[C@]2(CC[C@H](C(=O)Nc3ccn(-c4ccccc4F)n3)CC2)c2cnccc21
Result string: 1.732%

====

Measured ER-phagy suppression values are reported for all entries that follow.
- Test system: U2OS
- Assay Text: Here: values are normalized to the positive (DMSO; basel flux = defined as 100% suppression) and negative (250nM Torin1; mTOR inhibitor; maximal inducer of autophagy defined as 0% suppression) control compounds and represented as % of ER-phagy suppression. […] The impact of autophagy induction on cells is complex and depends on the affected target. […] Of note, treatment concentrations may be sub-optimal for specific compounds, leading to false negative annotations.
- Format: functional, Homo sapiens
- Run Parameters: Compound Concentration 1 uM, Timepoint 24 hours, Culturing Media DMEM, 1 % Penicillin/Streptomycin, 10% Fetal bovin serum Add-On: blasticidin, Screening Media Control DMEM, 10% Fetal bovin serum Add-On: 1 µg/ml Doxycyclin, Screening Media Samples DMEM, 10% Fetal bovin serum Add-On: 1 µg/ml Doxycyclin 250nM Torin1
The figure you give is taken to be in %; do not add the unit.

Field: example entries. Status: answers known.
- Compound: "O=c1cc(N2CCOCC2)oc2c(-c3cccc4c3sc3ccccc34)cccc12"
  Target Or System: "U2OS"
  Measurement Units: "%"
  ER-phagy suppression: 21.6983
- Compound: "Cn1cc(-c2ccc3nnc(Sc4ccc5ncccc5c4)n3n2)cn1 [SGX-523]"
  Target Or System: "U2OS"
  Measurement Units: "%"
  ER-phagy suppression: 0.9511
- Compound: "Cc1ccc(C(=O)Nc2cccc(C(F)(F)F)c2)cc1Nc1nc(-c2cccnc2)nc2c1cnn2C"
  Target Or System: "U2OS"
  Measurement Units: "%"
  ER-phagy suppression: 22.3835
- Compound: "O=C(NCCCN1CCOC1=O)c1cnc(NCc2cc(Br)ccc2Br)nc1NC1CCCC1"
  Target Or System: "U2OS"
  Measurement Units: "%"
  ER-phagy suppression: -21.0292
- Compound: "CN(c1ccnc(CNc2nc(Nc3ccc4c(c3)CC(=O)N4)ncc2C(F)(F)F)n1)S(C)(=O)=O [PF-00911705]"
  Target Or System: "U2OS"
  Measurement Units: "%"
  ER-phagy suppression: 19.7718
- Compound: "Cc1cnc(-c2cc(Cl)ccc2F)cc1-n1c(=O)n(CC(N)=O)c2ccccc21 [Al11]"
  Target Or System: "U2OS"
  Measurement Units: "%"
  ER-phagy suppression: -18.3016

Query string: GET /values?readout=ER-phagy suppression&item= Cc1cc(C)c(-n2ccn3nc(-c4cccnc4)cc23)cc1NC(=O)c1cc(C#N)cc(S(F)(F)(F)(F)F)c1 [BAY-826]
Result string: 6.3786

Query string: GET /values?readout=ER-phagy suppression&item= C[C@@H]1CN(c2cc(-c3n[nH]c4ccc(OC5(C)CC5)cc34)ncn2)C[C@H](C)O1 [MLi-2]
Result string: 2.978

Query string: GET /values?readout=ER-phagy suppression&item= C[C@@H](NC(=O)Nc1cc2[nH]ncc2c(CO)n1)c1ccccc1 [ERKi]
Result string: 1.384

====

- System: U2OS
- Assay Text: Here: values are normalized to the negative (DMSO; defined as 0% autophagy induction) and positive (250nM Torin1; mTOR inhibitor; defined as maximal inducer of autophagy = 100%) control compounds and represented as % of autophagy induction. […] The impact of autophagy induction on cells is complex and depends on the affected target. As such, the magnitude of a phenotype may not be equally mirrored in the %-value of autophagy induction and vice versa. The dynamics of the induction may indicate the mode of activation: e.g. activation via phosphorylation or a signaling cascade may occur fast, while activation via transcription factors may take considerably longer. […] Of note, treatment concentrations may be sub-optimal for specific compounds, leading to false negative annotations.
- Type: functional, Homo sapiens
- Run Parameters: Compound Concentration 10 uM, Timepoint 36 hours, Culturing Media DMEM, 1 % Penicillin/Streptomycin, 10% Fetal bovin serum Add-On: No, Screening Media Control DMEM, Screening Media Samples DMEM
Measured autophagy induction values are reported for all entries that follow.
The figure you give is taken to be in %; do not add the unit.

Field: example entries. Status: answers known.
- Compound: "CCOC(=O)c1cc(C#N)c(N2CCC(C(=O)NS(=O)(=O)Cc3ccccc3)CC2)nc1C"
  Measured Result: -9.343
- Compound: "Cc1c(F)cccc1NC(=O)Nc1ccc(Cl)c(S(=O)(=O)[C@H]2CCCNC2)c1O"
  Measured Result: -8.152
- Compound: "N#Cc1cccc(C(=O)Nc2cc(-c3ccccc3)nn2-c2ccccc2)c1"
  Measured Result: -1.742
- Compound: "O=C(O)CC1CCC2(CC1)CCN(c1cc(OC(F)(F)F)ccc1Cl)CC2"
  Measured Result: -0.9405
- Compound: "CCCSc1nc(N[C@@H]2C[C@H]2c2ccc(F)c(F)c2)c2nnn([C@@H]3C[C@H](OCCO)[C@@H](O)[C@H]3O)c2n1"
  Measured Result: -0.7195

Query string: GET /values?readout=autophagy induction&item= c1cc(CN2CCCNCCNCCCNCC2)ccc1CN1CCCNCCNCCCNCC1
Result string: -25.1466

Query string: GET /values?readout=autophagy induction&item= CCCCN(CCCC)C(=O)CN1C[C@@H](c2ccc3c(c2)OCO3)[C@H](C(=O)O)[C@H]1c1ccc(OC)cc1
Result string: 6.119

Query string: GET /values?readout=autophagy induction&item= Cc1cc([C@@H](C)Nc2cccc(-c3cc(C)c(C(=O)N[C@@H](C)C(=O)O)c(C)c3)c2)ccc1Cl
Result string: -1.416

Query string: GET /values?readout=autophagy induction&item= COc1ccc(Br)cc1S(=O)(=O)NC(=O)/C=C/c1ccccc1Cc1ccc2ccccc2c1
Result string: 3.111

Query string: GET /values?readout=autophagy induction&item= Cc1cc(NC(=O)Nc2ccc(N(C)C)cc2)c2cc(F)cc(F)c2n1
Result string: 13.8869

Query string: GET /values?readout=autophagy induction&item= Cc1cn2cc(CC(=O)N3CCC4(CC3)CN(Cc3ccc(-n5nccn5)cc3Cl)C4)nc2s1
Result string: 2.68

Query string: GET /values?readout=autophagy induction&item= C[C@H](CO)Nc1nc(SCc2cccc(Cl)c2F)nc2[nH]c(=O)sc12
Result string: 5.199

Query string: GET /values?readout=autophagy induction&item= O=C(Nc1ccc(Cl)cc1)Nc1cccc(-c2cccc(N3CCCC3)n2)c1
Result string: 22.7984

Query string: GET /values?readout=autophagy induction&item= COc1ccc(CNC(=O)c2cc(-c3cncc(Cl)c3)cnc2-c2ccccn2)nc1OC
Result string: -1.481

Query string: GET /values?readout=autophagy induction&item= COC1CCN(c2cccc(-c3cc(NC(C)=O)nc(-n4nc(C)cc4C)n3)n2)CC1
Result string: 9.047

Query string: GET /values?readout=autophagy induction&item= COc1cccc(-c2c(C)n(Cc3c(F)cccc3C(F)(F)F)c(=O)n(C[C@H](NCCCC(=O)[O-])c3ccccc3)c2=O)c1F.[Na+] [ELAGOLIX SODIUM]
Result string: -1.897

Query string: GET /values?readout=autophagy induction&item= Cl.Cl.Cl.c1ccc(N2CCN(Cc3nc4ccccc4[nH]3)CC2)nc1
Result string: -1.149

Query string: GET /values?readout=autophagy induction&item= CSc1ccc(C(=O)N[C@@H]2CCCC[C@@H]2NC(=O)CNC(=O)c2cc(C(F)(F)F)ccc2NC(=O)NC(C)C)cc1
Result string: 6.117
